Quick list: CC50 per entry.
Assay: Cytotoxicity (CC50) in TZM-bl cells
Assay type: cell-based
Settings: human; TZM-bl cells (Table 3); read-out: CC50

{"compound": "Cc1nnc(C(C)C)n1C1CCN(CC[C@H](NC(=O)C2CCC(F)(F)CC2)c2ccsc2)CC1", "CC50": "> 200 µg/mL"}
{"compound": "Cc1nnc(C(C)C)n1C1CC2CCC(C1)N2CC[C@H](NC(=O)C1CCC(F)(F)CC1)c1ccsc1 (some centres unmarked)", "CC50": "> 200 µg/mL"}

Field: next compound
// field: CC50; key: CC(=O)NC(CCN1C2CCC1CC(n1c(C)nnc1C(C)C)C2)c1cccs1 (centres unmarked) ; value = 42.8 µg/mL
